System: Caspase-3/7 activity in HepG2 cells
Test: Caspase-3/7 activity test
Format: cell-based, human
Conditions: HepG2, 100 μM, one day; relative to Staurosporine maximum (100%) and no test reagent (0%)
Counter-ions that a name gives are not always drawn.

{"Molecule": "CNCc1cn(S(=O)(=O)c2cc(OC)ccn2)c(-c2cccnc2F)c1F [Example 4, hydrochloride]", "Caspase-3/7 activity (%, 100 μM) / %": "−0.6"}
{"Molecule": "CNCc1cn(S(=O)(=O)c2ccc(F)cn2)c(-c2cccnc2F)c1F [Example 3, hydrochloride]", "Caspase-3/7 activity (%, 100 μM) / %": "−0.5"}
{"Molecule": "CNCc1cn(S(=O)(=O)c2cncc(F)c2)c(-c2cccnc2F)c1F [Example 5, hydrochloride]", "Caspase-3/7 activity (%, 100 μM) / %": 0.3}
{"Molecule": "CNCc1cn(S(=O)(=O)c2ccc(C)nc2)c(-c2cccnc2F)c1F [Example 8]", "Caspase-3/7 activity (%, 100 μM) / %": 2.4}
{"Molecule": "CNCc1cn(S(=O)(=O)c2ccc(OC)cn2)c(-c2cccnc2F)c1F [Example 10, hydrochloride]", "Caspase-3/7 activity (%, 100 μM) / %": 0.9}
{"Molecule": "CNCc1cn(S(=O)(=O)c2cc(C)ccn2)c(-c2cccnc2F)c1F [Example 2, hydrochloride]", "Caspase-3/7 activity (%, 100 μM) / %": "−1.1"}
